Assay: VP16 counterscreen qHTS for inhibitors of ROR gamma transcriptional activity;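 further: Gal4-VP16 expression switched on by copper sulfate through the metallothionein promoter; nearly all actives have a fitted effect of over 50% in size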
Settings: Drosophila S2 Gal4-VP16 UAS-luciferase, luminescence, 20 h; series mostly up to 53.6 µM
Out of some 310,000 compounds screened, about 11,000 (3.5%) were called active. Roughly 8% stayed inconclusive and do not appear here. The call rests on the fitted dose curve; in most records, active means well fitted inhibition curve with a large enough effect; inconclusive means small, poorly fitted or top-dose-only effect, or effect the other way; inactive means flat fitted curve, though single readings scatter. This is one part of a sample in which actives are shown more often than they occur.
Pick from T for active, F for inactive when you respond.

| Molecule | Group |
| --- | --- |
| O=C(NCCS(=O)(=O)N1CCN(c2ccccc2F)CC1)c1ccc(Br)o1 | F |
| CCOc1cc(/C=N/Nc2cc(C)nc3ccc(C)cc23)ccc1O | F |
| COc1cccc(N(CC(=O)NCc2ccccc2)C(=O)CCC(=O)Nc2nccs2)c1 | F |

Tell me the assay call for "CCCCNC(=O)CCn1c(=S)[nH]c2cc3c(cc2c1=O)OCO3" please. F

Tell me the assay call for COc1ccc(C2c3[nH]c4ccccc4c3C[C@H]3C(=O)N(CC(C)C)CC(=O)N23)c(OC)c1 (stereo partly drawn) please. F

Tell me the assay call for "CCCCc1cc(=O)oc2c(C)c(OCC(=O)N3CCC(C(N)=O)CC3)ccc12" please. F

Tell me the assay call for "Cc1cc(-c2ccc(S(=O)(=O)N3CCN(c4cccc(C(F)(F)F)c4)CC3)s2)on1" please. F

Tell me the assay call for "CCn1c(=S)[nH]c2sc3c(c2c1=O)CCCCC3" please. T

* * *

Assay: VP16 counterscreen qHTS for inhibitors of ROR gamma transcriptional activity;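 further: Gal4-VP16 expression switched on by copper sulfate through the metallothionein promoter; nearly all actives have a fitted effect of over 50% in size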
Settings: Drosophila S2 Gal4-VP16 UAS-luciferase, luminescence, 20 h; series mostly up to 53.6 µM
Hit rate of the full screen: of about 310,000 compounds, about 11,000 (3.5%) were called active. Not shown: some 8% with an inconclusive outcome. Calls come from the whole dose curve; as a rule, active = well fitted inhibition curve with a large enough effect; inconclusive = small, poorly fitted or top-dose-only effect, or effect the other way; inactive = flat fitted curve, though single readings scatter. Many of the other results were omitted from the sample, so actives are more common in it than they were.
Pick from active, inactive when you respond.

Here's what some known entries look like.
| Given Smiles | Group |
| --- | --- |
| O=C(Nc1cccc(C(F)(F)F)c1)c1cc(Br)cc(Br)c1O | active |
| CN(C)CCSc1nc(N)c2c3c(sc2n1)COC(C)(C)C3 | inactive |
| O=C(NNC(=S)NCc1ccccc1)c1ccc(OC(F)F)cc1 | inactive |
| CNC(=O)C(NC(=O)c1ccccc1)=C(C)C | inactive |

Now, please, on to the next compound.
Tell me the assay call for "Cc1c2c(nc3ccccc13)-c1cccc(=O)n1C2" please. active

* * *

Experiment: VP16 counterscreen qHTS for inhibitors of ROR gamma transcriptional activity;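 further: Gal4-VP16 expression switched on by copper sulfate through the metallothionein promoter; nearly all actives have a fitted effect of over 50% in size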
Conditions: Drosophila S2 Gal4-VP16 UAS-luciferase, luminescence, 20 h; series mostly up to 53.6 µM
Screen size: about 310,000 compounds; about 11,000 (3.5%) were called active. Another 8% or so got no clear call; they are omitted. The sample holds actives, similar compounds and a random draw of the others, so the mix is not that of the screen.

| Given Smiles | outcome |
| --- | --- |
| COc1cc(C(=O)NCC2(c3ccccc3)CCCC2)ccc1OC(C)C | inactive |
| COc1ccc(NC(=O)COc2ccc(C(=O)c3ccc(F)cc3)cc2)cc1S(N)(=O)=O | inactive |
| Cc1cc2oc(=O)cc(CN(C)Cc3ccc(OC(F)F)cc3)c2cc1Cl | inactive |

* * *

Test: VP16 counterscreen qHTS for inhibitors of ROR gamma transcriptional activity;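 further: Gal4-VP16 expression switched on by copper sulfate through the metallothionein promoter; nearly all actives have a fitted effect of over 50% in size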
Details: Drosophila S2 Gal4-VP16 UAS-luciferase, luminescence, 20 h; series mostly up to 53.6 µM
Among all 310,000 compounds or so, about 11,000 (3.5%) were called active. Not shown: some 8% with an inconclusive outcome. Calls follow the shape of the dose curve; as a rule, active = well fitted inhibition curve with a large enough effect; inconclusive = small, poorly fitted or top-dose-only effect, or effect the other way; inactive = flat fitted curve, though single readings scatter. The sample as a whole holds a higher share of actives than the screen did.
Pick from true (1) (active), false (0) (inactive) when you respond.

| Compound | Group |
| --- | --- |
| Cc1ccccc1N1CC(C(=O)Nc2nnc(SCCC3OCCO3)s2)CC1=O (centres undefined) | false (0) |

Tell me the assay call for "CC(C)Sc1nnc([C@H](Cc2ccccc2)NC(=O)OC(C)(C)C)o1" please. false (0)

Tell me the assay call for COC(=O)c1ccc2c(=O)n(CC3CCCO3)c(=S)[nH]c2c1 (centres undefined) please. true (1)

Tell me the assay call for "O=[N+]([O-])c1ccc2c(c1)Nc1nc3ccccc3nc1N2" please. false (0)
